# key: entry, value: log10 IC50
Target: UniProtKB P09917
Sequence (P09917 whole entry): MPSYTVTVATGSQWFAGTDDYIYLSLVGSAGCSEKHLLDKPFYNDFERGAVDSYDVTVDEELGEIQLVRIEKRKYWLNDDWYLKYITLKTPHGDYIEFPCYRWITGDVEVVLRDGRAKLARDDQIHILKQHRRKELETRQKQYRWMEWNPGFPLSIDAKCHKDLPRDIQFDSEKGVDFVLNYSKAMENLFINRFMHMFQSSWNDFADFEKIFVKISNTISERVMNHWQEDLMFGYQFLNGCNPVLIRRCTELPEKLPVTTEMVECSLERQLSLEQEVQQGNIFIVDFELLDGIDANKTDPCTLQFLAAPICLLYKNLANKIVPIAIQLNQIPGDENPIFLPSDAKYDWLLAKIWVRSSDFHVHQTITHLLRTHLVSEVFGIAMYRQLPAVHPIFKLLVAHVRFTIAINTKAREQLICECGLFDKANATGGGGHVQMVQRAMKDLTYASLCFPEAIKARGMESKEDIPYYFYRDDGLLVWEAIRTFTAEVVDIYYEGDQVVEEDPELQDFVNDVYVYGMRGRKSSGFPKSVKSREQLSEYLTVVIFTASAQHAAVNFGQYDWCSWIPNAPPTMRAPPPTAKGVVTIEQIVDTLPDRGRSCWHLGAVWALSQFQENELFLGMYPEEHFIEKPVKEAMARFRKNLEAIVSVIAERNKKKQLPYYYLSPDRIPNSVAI
Experiment: Inhibition of human 5-LOX using arachidonic acid as substrate preincubated for 10 mins followed by substrate addition by H2DCFDA staining-based fluorometric analysis
Endpoint Label: log10 IC50 (log10 of the value in µM)

- O=C(Nc1cccc(-c2ccccc2)c1)c1cc([N+](=O)[O-])cc([N+](=O)[O-])c1: -1.52
- CCCc1cccc(OC(=O)c2cc([N+](=O)[O-])cc([N+](=O)[O-])c2)c1: 0.87
- COc1ccc(NC(=O)c2cc([N+](=O)[O-])cc([N+](=O)[O-])c2)cc1OC: 0.04
- O=C(Nc1ccccc1)c1cc([N+](=O)[O-])cc([N+](=O)[O-])c1: 0.26
- O=C(Nc1cccc(Cl)c1)c1cc([N+](=O)[O-])cc([N+](=O)[O-])c1: -1.48
- O=C(NCc1cccc(Br)c1)c1cc([N+](=O)[O-])cc([N+](=O)[O-])c1: 1.92
- O=C(Oc1ccccc1)c1cc([N+](=O)[O-])cc([N+](=O)[O-])c1: 0.20
- O=C(Nc1cccc2ccccc12)c1cc([N+](=O)[O-])cc([N+](=O)[O-])c1: -2.40
